B1: library; a variant is named by its letters at N, in order (parent)
chain: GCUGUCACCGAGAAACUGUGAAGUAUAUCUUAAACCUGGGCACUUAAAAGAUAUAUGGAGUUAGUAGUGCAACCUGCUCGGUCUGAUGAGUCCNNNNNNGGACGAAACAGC

- Variants of: B1
- assay-remarks: FACS-Seq fitted mean relative fluorescence mCherry/BFP without ligand (log10 relative fluorescence); HEK293T; ligand: cyclic di-GMP (c-di-GMP-II aptamer); higher = higher reporter protein expression
- condition-set: ligand present: no
Note that class boundaries on FACS-Seq fitted mean (log10) are bucket 1 = under -0.5, bucket 2 = from -0.5 up to -0.4, bucket 3 = -0.4 and over

variant-descriptor	group
ACUAAA	bucket 2
UAAGUG	bucket 3
AGCAAA	bucket 1
ACAGAA	bucket 1
GAAAUG	bucket 2
UGCUUU	bucket 3
UGCAUG	bucket 3
CGUGGA	bucket 2
AAAUAU	bucket 2
GUGAAG	bucket 2
GCUCUA	bucket 3
UAUAGU	bucket 1
CAUUUA	bucket 1
CCAAAC	bucket 3
GCAGCU	bucket 3
AACUAA	bucket 2
AAAGAU	bucket 3
AGGUGA	bucket 2
GUCAAA	bucket 3
